- experiment_summary: NCI Yeast Anticancer Drug Screen. Data for the rad50 strain (AID 155);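 further: 0% = growth of vehicle-only cultures of the same strain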
- test_settings: S. cerevisiae rad50 strain growth inhibition; at 50.0 µM unless noted
This is part of a sample that, as a whole, favours compounds with a hit. Of some 79,000 tested, about 15% had one in any assay. Calls of active or inactive are those of the source. No stated cut-off is given here; in the data, active means growth inhibition above about 70%; inactive means the rest.
Log the outcome using a class from active, inactive

molecule: NCC(=O)c1ccc(CCC(=O)O)cc1
class_label: inactive
//
molecule: CCOC(=O)c1[nH]c(=O)[nH]c(=O)c1[N+](=O)[O-]
class_label: inactive
//
molecule: C=CCS(=O)(=O)CC=C
class_label: inactive
//
molecule: Cc1nn(C(C)C(=O)N(C)C)c(Br)c1Br (stereo not drawn)
class_label: inactive

Request: Kindly provide the recorded test outcome for the following molecule: "O=[N+]([O-])c1ccccc1N1CCCCC1"
Result: inactive

Request: Kindly provide the recorded test outcome for the following molecule: C=C1CC2CC[C@@]34C[C@@H]5O[C@@H]6C(O[C@H]7CC[C@H](CC(=O)OC8[C@@H](C)C9OC%10C[C@]%11(C[C@@H]%12O[C@@]%13(C[C@@H](C)[C@@H]%12O%11)C[C@H](C)[C@@H]%11OC%12CC(C(O)CO)OC%12C[C@@H]%11O%13)OC%10CC9O[C@H]8C[C@H]8O[C@@H](CC[C@@H]1O2)C[C@@H](C)C8=C)O[C@@H]7[C@@H]6O3)C5O4 (stereo partly drawn)
Result: active

Request: Kindly provide the recorded test outcome for the following molecule: "COc1ccc2[nH]c3c(C)c4c(c(C)c3c2c1)CN(C)C=C4"
Result: inactive

Request: Kindly provide the recorded test outcome for the following molecule: "O=c1c2ccccc2[nH]c(=S)n1CCc1ccccn1"
Result: inactive

Request: Kindly provide the recorded test outcome for the following molecule: "CCN(CC)CCCCCCNc1cc(O)cc2cccnc12"
Result: inactive

Request: Kindly provide the recorded test outcome for the following molecule: "CCc1ccccc1NC(=O)C(=O)CC(=O)c1sc(Nc2ccccc2Cl)nc1C"
Result: inactive

Request: Kindly provide the recorded test outcome for the following molecule: "CN(C)C(=O)NN1CCCCCC1"
Result: inactive

---

- experiment_summary: NCI Yeast Anticancer Drug Screen. Data for the mec2-1 strain (AID 157)
- test_settings: S. cerevisiae mec2-1 strain, hits give high values; at 50.0 µM unless noted
About 79,000 compounds went through this panel and 15% of them were active in at least one assay; those are over-represented in the sample as a whole.
Please respond with reported growth inhibition for every item in the list.
Answers are plain numbers, in %.

Sample records with growth inhibition:
molecule: CC(=O)c1ccc(Cl)cc1Cl
growth inhibition / %: -11.8
//
molecule: Cn1ccn(C2CCCCC2)c1=O
growth inhibition / %: 5.1
//
molecule: Nc1c(C(=O)O)ccc(O)c1O
growth inhibition / %: 20.5
//
molecule: CC1=C(C(=O)Nc2ccccc2)C(c2ccccc2Cl)C(C(=O)Nc2ccccc2)=C(C)N1
growth inhibition / %: -0.35
//
molecule: CCOC(=O)C1=CC(C(=O)OCC)=C2C=CC=C3C=CC=C1N32
growth inhibition / %: 8.7
//
molecule: CC(=O)N1C(=O)c2cccc([N+](=O)[O-])c2C1=O
growth inhibition / %: -11.9
//
molecule: Cc1cc(=O)oc2c(C)c(OCCCOc3ccc4c(C)cc(=O)oc4c3C)ccc12
growth inhibition / %: -15.6
//
molecule: CC(=O)Oc1ccc(CCC(=O)O)cc1
growth inhibition / %: 12.6

Please state, for each entry, its recorded growth inhibition.
1. O=C1C=CC(=O)N1c1ccnc(N2C(=O)C=CC2=O)c1
2. CCCCCCNC(=O)CCN(C(=O)O)S(=O)(=O)c1ccc(NC(=O)c2ccccc2)cc1
3. CCOC(=O)NC(=O)c1cn(CCSCCOC(=O)NCCCCCCNC(=O)OCCSCCn2cc(C(=O)NC(=O)OCC)c(=O)n(C)c2=O)c(=O)n(C)c1=O
4. Cc1[nH]c2c(C)ccc(C)c2c(=O)c1Br
5. COc1cc(C)c(O)c(C(=O)O)c1
6. CCOC(=N)C1(O)CCCCC1

Result:
-1.55
-3.45
-10.6
10
-7.65
-6.75

Hello, the source for this data is PubChem BioAssay (NCI), in case you need it.
